System: Aspergillus fumigatus
Assay: Antifungal activity against Aspergillus fumigatus ATCC 16424 after 48 hrs by broth microdilution method
Type: functional
Settings: ATCC 16424, 48 h
Starred links: 1 amine or outer side, 2 acyl side, 3 side chain; linkers in the order of their positions; H or OH if unused. Positions of bridges follow the written chain, without caps; N, C: chain ends. Non-standard residues stand in square brackets, D forms with d. Residues, ends and D or L forms follow the SMILES beside them. *: point of attachment. hTyr(3S-OH,4S-OH,3'-OSO3H) = N[C@H](C(=O)O)[C@H](O)[C@@H](O)c1ccc(O)c(OS(=O)(=O)O)c1; Orn(4R-OH,5R-OH) = O=C([C@H](C[C@@H](O)[C@@H](O)N[*:3])N[*:1])[*:2]; Pro(3S-OH,4S-Me) = C[C@H]1CN[C@H](C(=O)O)[C@H]1O; X1 = CCCCCOc1ccc(-c2cc(-c3ccc(C(=O)*)cc3)no2)cc1; Gln(3R-OH) = NC(=O)C[C@@H](O)[C@H](N)C(=O)O; Hyp = O=C(O)[C@@H]1C[C@@H](O)CN1
Provide the reported MIC of each item.

stdin: State, in one line, measured MIC of CCCCCOc1ccc(-c2cc(-c3ccc(C(=O)N[C@H]4C[C@@H](O)[C@@H](O)NC(=O)[C@@H]5[C@@H](O)[C@@H](C)CN5C(=O)[C@H]([C@H](O)CC(N)=O)NC(=O)[C@H]([C@H](O)[C@@H](O)c5ccc(O)c(OS(=O)(=O)O)c5)NC(=O)[C@@H]5C[C@@H](O)CN5C(=O)[C@H]([C@@H](C)O)NC4=O)cc3)no2)cc1 [MICAFUNGIN] (X1-[Orn(4R-OH,5R-OH)]T[Hyp][hTyr(3S-OH,4S-OH,3'-OSO3H)][Gln(3R-OH)][Pro(3S-OH,4S-Me)]; lactam 1-C)
stdout: 0.0313 mg/L

stdin: State, in one line, measured MIC of OC(Cn1cncn1)(Cn1cncn1)c1ccc(F)cc1F [FLUCONAZOLE]
stdout: > 64 mg/L

stdin: State, in one line, measured MIC of C[C@@H]1[C@H](O)[C@@H](C)/C=C/C=C/C=C/C=C/C=C/C=C/C=C/[C@H](O[C@@H]2O[C@H](C)[C@@H](O)[C@H](N)[C@@H]2O)C[C@@H]2O[C@](O)(C[C@@H](O)C[C@@H](O)[C@H](O)CC[C@@H](O)C[C@@H](O)CC(=O)O[C@H]1C)C[C@H](O)[C@H]2C(=O)O [AMPHOTERICIN B]
stdout: 1 mg/L

stdin: State, in one line, measured MIC of C[C@@H](c1ncncc1F)[C@](O)(Cn1cncn1)c1ccc(F)cc1F [VORICONAZOLE]
stdout: 0.25 mg/L

stdin: State, in one line, measured MIC of `N=C(N)c1ccc(OCCCC2CCN(CCCOc3ccc(C(=N)N)cc3)CC2)cc1`
stdout: 0.125 mg/L
